tested on: HIV-1IIIB; assay: Inhibition of HIV-1IIIB induced syncytium formation in C8166 cells; assay type: cell-based; details: Human immunodeficiency virus 1; HIV-1IIIB, C8166 cells, third day after infection
Task for the reader: assign each of the following compounds its reported EC50.

CC(C)C1CCC2(C(=O)O)CCC3(C)C(CCC4C5(C)CCC(O)C(C)(CO)C5CCC43C)C12 (stereo not drawn) [zhangnan-8, 23-hydroxyl-dihydrobetulinic acid] = 1100 nM

Go through the list and state EC50 for each entry.
1. C=C(C)C1CCC2(C(=O)O)CCC3(C)C(CCC4C5(C)CCC(=O)C(C)(CO)C5CCC43C)C12 (stereo not drawn)
2. CC(C)C1CCC2(C(=O)O)CCC3(C)C(CCC4C5(C)CCC(=O)C(C)(CO)C5CCC43C)C12 (stereo not drawn)

["500 nM", "1.9 nM"]
